# target_desc: Cytochrome P450 2C9 (Homo sapiens, UniProt P11712)
# Sequence (P11712 whole entry): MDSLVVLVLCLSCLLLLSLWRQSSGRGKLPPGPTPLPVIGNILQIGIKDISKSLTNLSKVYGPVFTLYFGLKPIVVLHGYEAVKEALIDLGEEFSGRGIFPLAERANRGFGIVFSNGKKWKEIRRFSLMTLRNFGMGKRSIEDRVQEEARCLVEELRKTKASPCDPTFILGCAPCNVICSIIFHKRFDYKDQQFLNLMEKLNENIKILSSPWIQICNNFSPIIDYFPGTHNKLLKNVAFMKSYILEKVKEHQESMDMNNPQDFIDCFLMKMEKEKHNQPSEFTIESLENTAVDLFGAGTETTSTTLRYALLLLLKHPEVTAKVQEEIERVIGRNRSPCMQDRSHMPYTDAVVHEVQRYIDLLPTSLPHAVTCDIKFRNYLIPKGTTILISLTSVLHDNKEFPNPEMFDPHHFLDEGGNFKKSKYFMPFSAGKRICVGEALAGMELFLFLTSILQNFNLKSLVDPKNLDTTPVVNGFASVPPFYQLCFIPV
assay_metric: pIC50
Give bare numbers, as −log10 of the molar value.

# query: pIC50 | item "Oc1cccc(-c2ccc(-c3cccc(O)c3)cc2)c1" | system: Cytochrome P450 2C9 (Homo sapiens, UniProt P11712)
5.72

----------
Consider the following molecules; for each one, report its half-life.
# procedure_details: Half life in Wistar rat at 10 mg/kg, po by cassette dosing
# Format: ADME, organism-based
# Set-up: dose 10 mg/kg, route oral
# particulars: in vivo, read-out: beta t1/2 (converted)
Numbers only, in h.

Oc1cccc(-c2nnc(-c3cccc(O)c3)nn2)c1 = 1.2

Given the entry "Oc1ccc(-c2cnc(-c3cccc(O)c3)s2)cc1" , report its measured half-life.
1.5
